# EC50 per record follows
Molecular target: T1, human hepcidin (mature, 25 amino acids) (human, mono-biotinylated in the ELISAs and on the KinExA beads (site not stated); unlabelled in solution and on the BIAcore chip)
T1 construct: the form is named in each assay field; also called rhuHepc; rhHepc
T1 peptide: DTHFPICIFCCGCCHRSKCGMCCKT
Assay: ELISA, mono-biotinylated human hepcidin on Neutravidin plate, pH 6.0
Please state the figure in µg/mL; there is no need to write the unit.

>  <BINDER>
15E1 A107H L27H (antibody, V domains shown, Double histidine mutant of 15E1 (one change in each chain); constant regions as in wild-type 15E1; also called A107H (heavy chain)/L27H (light chain)) VH: QVQLVESGGGVVQPGRSLRLSCAASGFTFSSYGMHWVRQAPGKGLEWVAVIWYAESNKYYADSVKGRFTISRDNSKNTLYLQMNSLRAEDTAVYYCARAQEGIAPDHFDIWGQGTMVTVSS VL: SYELTQPPSVSVSPGQTATITCSGDKHGERYACWYQQRPGQSPVLVIYQDSKRPSGIPERFSGSNSGNTATLTISGTQAMDEADYFCQAWYSSTNVLFGGGTKLTVL

>  <EC50 [µg/mL]>
0.0193

$$$$

Request: For the binder 15E1 N57H (antibody, V domains shown, Histidine mutant of 15E1, transiently expressed in 293-6E cells; constant regions as in wild-type 15E1; also called N57H (heavy chain)) VH: QVQLVESGGGVVQPGRSLRLSCAASGFTFSSYGMHWVRQAPGKGLEWVAVIWYAESHKYYADSVKGRFTISRDNSKNTLYLQMNSLRAEDTAVYYCARAQEGIAPDAFDIWGQGTMVTVSS VL: SYELTQPPSVSVSPGQTATITCSGDKLGERYACWYQQRPGQSPVLVIYQDSKRPSGIPERFSGSNSGNTATLTISGTQAMDEADYFCQAWYSSTNVLFGGGTKLTVL , give its reported EC50.
Response: 0.004
